- tested_target: PI3k δ (Homo sapiens, UniProt O00329)
- Construct: Full length p110 subunits of PI3k α, β and δ; polyHis (N); made in house; host or cells: Sf9 insect cells (baculovirus)
- Sequence (O00329 whole entry): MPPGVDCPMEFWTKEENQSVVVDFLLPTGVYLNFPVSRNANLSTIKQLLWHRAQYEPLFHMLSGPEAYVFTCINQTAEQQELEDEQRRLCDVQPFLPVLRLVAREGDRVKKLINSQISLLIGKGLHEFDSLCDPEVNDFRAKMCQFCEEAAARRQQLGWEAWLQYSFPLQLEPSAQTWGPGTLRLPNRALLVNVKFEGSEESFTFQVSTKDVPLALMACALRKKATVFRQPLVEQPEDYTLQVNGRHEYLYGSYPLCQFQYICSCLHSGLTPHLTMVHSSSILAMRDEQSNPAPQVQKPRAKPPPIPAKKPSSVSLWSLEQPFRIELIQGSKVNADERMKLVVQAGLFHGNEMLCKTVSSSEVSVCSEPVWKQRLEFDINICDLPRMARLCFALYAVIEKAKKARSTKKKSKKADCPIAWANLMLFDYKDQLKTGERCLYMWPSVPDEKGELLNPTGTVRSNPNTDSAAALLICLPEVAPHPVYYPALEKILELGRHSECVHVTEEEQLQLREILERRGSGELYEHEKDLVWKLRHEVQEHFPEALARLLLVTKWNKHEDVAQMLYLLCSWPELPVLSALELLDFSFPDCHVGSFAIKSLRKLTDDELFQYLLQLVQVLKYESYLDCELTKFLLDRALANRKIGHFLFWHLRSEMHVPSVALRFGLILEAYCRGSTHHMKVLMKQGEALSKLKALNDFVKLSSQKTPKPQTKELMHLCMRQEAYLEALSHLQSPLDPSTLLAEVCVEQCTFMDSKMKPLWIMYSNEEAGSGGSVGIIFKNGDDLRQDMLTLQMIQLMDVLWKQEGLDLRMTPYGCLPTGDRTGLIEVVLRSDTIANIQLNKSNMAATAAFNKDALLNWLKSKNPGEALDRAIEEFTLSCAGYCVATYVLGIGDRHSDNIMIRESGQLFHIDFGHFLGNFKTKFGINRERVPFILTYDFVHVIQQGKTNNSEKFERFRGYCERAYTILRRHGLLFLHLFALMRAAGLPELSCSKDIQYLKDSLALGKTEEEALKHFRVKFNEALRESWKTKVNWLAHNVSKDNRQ
- Sequence (P27986 whole entry partner): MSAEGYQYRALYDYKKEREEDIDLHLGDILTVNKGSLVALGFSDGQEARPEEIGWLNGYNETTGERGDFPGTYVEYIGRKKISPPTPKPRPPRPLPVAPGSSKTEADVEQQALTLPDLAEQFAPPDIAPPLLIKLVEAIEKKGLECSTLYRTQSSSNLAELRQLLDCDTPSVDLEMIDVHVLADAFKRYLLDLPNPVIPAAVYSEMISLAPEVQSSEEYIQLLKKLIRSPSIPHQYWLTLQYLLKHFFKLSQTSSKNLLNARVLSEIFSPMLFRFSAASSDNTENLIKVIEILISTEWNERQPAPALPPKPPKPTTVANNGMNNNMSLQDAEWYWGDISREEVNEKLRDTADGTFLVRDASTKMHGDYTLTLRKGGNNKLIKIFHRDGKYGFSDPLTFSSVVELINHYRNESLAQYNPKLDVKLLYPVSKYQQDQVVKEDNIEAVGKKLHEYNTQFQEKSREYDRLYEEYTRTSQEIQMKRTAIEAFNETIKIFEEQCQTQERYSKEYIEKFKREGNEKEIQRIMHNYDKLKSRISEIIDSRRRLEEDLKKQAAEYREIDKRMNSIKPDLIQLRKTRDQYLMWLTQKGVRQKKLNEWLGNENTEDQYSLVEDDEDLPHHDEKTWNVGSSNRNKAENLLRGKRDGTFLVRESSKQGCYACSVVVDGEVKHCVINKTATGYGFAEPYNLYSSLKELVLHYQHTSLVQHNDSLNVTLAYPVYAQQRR
- method_notes: biochemical
- Assay type: biochemical
- condition_details: read-out: PI3k δ Ki
Catalogue of log10 Ki readings, one per entry.
reported_endpoint: log10 Ki (log10 of the value in nM)

{"columns": ["smiles_representation", "log10 Ki"],
 "data": [
  ["CC[C@H](Nc1ncnc(N)c1C#N)c1nc2cccc(C(F)(F)F)c2n1Cc1ccc(F)cc1", 2.67],
  ["C[C@H](Nc1ncnc(N)c1C#N)c1nc2ccc(F)cc2n1-c1cncc(NS(C)(=O)=O)c1", 1.08],
  ["CNC(=O)c1cccc(-n2c([C@@H](C)Nc3ncnc(N)c3C#N)nc3ccc(F)cc32)c1", 3.67],
  ["C[C@H](Nc1ncnc(N)c1C#N)c1nc2cccc(C(=O)NC3CCCC3)c2n1C1CC1", 1.26],
  ["C[C@H](Nc1ncnc(N)c1C#N)c1nc2c(S(C)(=O)=O)cccc2n1C1CCCC1", 3.16]
]}

----------
Catalogue of pKi readings, one per entry.
- tested_target: PI3k δ (Homo sapiens)
- Construct: Full length p110 subunits of PI3k α, β and δ; polyHis (N); made in house; host or cells: Sf9 insect cells (baculovirus)
- method_notes: biochemical
- Format: biochemical
pKi: −log10 of the molar value.
reported_endpoint: pKi

{"columns": ["compound", "reading"],
 "data": [
  ["C[C@H](Nc1ncnc(N)c1C#N)c1nc2ccc(F)cc2n1-c1cncc(-c2ccccn2)c1", 6.61],
  ["CC(Nc1ncnc(N)c1C#N)c1nc2cccc(S(C)(=O)=O)c2n1C1CC1 (stereo not shown)", 8.42],
  ["CC(Nc1ncnc(N)c1C#N)c1nc2ncccc2n1-c1ccccn1 (stereo not shown)", 5.54],
  ["C[C@@H](Nc1ncnc(N)c1C#N)c1nc2ccc(F)cc2n1-c1cncc(-c2ccccn2)c1", 5.92]
]}

----------
Catalogue of log10 of Ki readings, one per entry.
- tested_target: PI3k δ (Homo sapiens, UniProt O00329)
- Construct: Full length p110 subunits of PI3k α, β and δ; polyHis (N); made in house; host or cells: Sf9 insect cells (baculovirus)
- method_notes: biochemical
- Assay type: biochemical
- condition_details: read-out: PI3k δ Ki
reported_endpoint: log10 of Ki (log10 of the value in nM)

{"columns": ["compound", "reported_endpoint", "reading"],
 "data": [
  ["C[C@H](Nc1ncnc(N)c1C#N)c1nc2cccc(S(C)(=O)=O)c2n1C1CC1", "log10 of Ki", 0.45],
  ["C[C@H](Nc1ncnc(N)c1C#N)c1nc2cccnn2c1-c1ccccn1", "log10 of Ki", 3.30],
  ["COC(=O)c1cccc2nc([C@H](C)Nc3ncnc(N)c3C#N)c(-c3cccnc3)n12", "log10 of Ki", 2.17],
  ["C[C@H](Nc1ncnc2[nH]cnc12)c1nc2ccc(F)cc2n1-c1cccc(F)c1", "log10 of Ki", 0.43],
  ["CC(Nc1ncnc(N)c1C#N)c1sc2ccccc2c1-c1ccccc1 (stereo not shown)", "log10 of Ki", 0.42],
  ["C[C@H](Nc1ncnc(N)c1C#N)c1nc2cccc(S(C)(=O)=O)c2n1Cc1ccc(F)cc1", "log10 of Ki", 1.43],
  ["COC(=O)c1cccc2nc([C@H](C)Nc3ncnc(N)c3C#N)c(-c3cncc(F)c3)n12", "log10 of Ki", 2.50],
  ["C[C@H](Nc1ncnc(N)c1C#N)c1nc2cccc(F)c2n1C1CC1", "log10 of Ki", 1.09],
  ["C[C@H](Nc1ncnc(N)c1C#N)c1nc2ccc(F)cn2c1-c1cc(F)cc(Cl)c1", "log10 of Ki", 0.94],
  ["C[C@@H](Nc1ncnc(N)c1C#N)c1nc2ccc(F)cc2n1-c1cccc(F)n1", "log10 of Ki", 2.88]
]}
